viability, T/C values by entry
- Test system: 282377-053-R-J1-PDC tumor spheroids, viability;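 also: spheroids exposed to drugs for seven days before readout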
- Method description: Anticancer human tumor 282377-053-R-J1-PDC patient-derived colon adenocarcinoma cell line growth inhibition [TAK]
- Experimental parameters: second compound 0.3 µM; first compound 0.0316 µM; hits give low values; spheroids with HUVEC and MSC
Please reply with the bare figure in % and do not write the unit itself.

• CC(C)CC(NC(=O)CNC(=O)c1cc(Cl)ccc1Cl)B1OC(=O)CC(CC(=O)O)(C(=O)O)O1 (stereo not drawn) + CC(C)NCC(C(=O)N1CCN(c2ncnc3c2C(C)CC3O)CC1)c1ccc(Cl)cc1 = 89.7

Kindly note the recorded viability, T/C for CC(C)(C)c1nc(-c2cccc(NS(=O)(=O)c3c(F)cccc3F)c2F)c(-c2ccnc(N)n2)s1 + CC(C)NCC(C(=O)N1CCN(c2ncnc3c2C(C)CC3O)CC1)c1ccc(Cl)cc1 , which is 83.5

The recorded viability, T/C for COc1c(OCCCN2CCOCC2)ccc2c3n(c(=NC(=O)c4cnc(N)nc4)nc12)CCN3 + CC(C)NCC(C(=O)N1CCN(c2ncnc3c2C(C)CC3O)CC1)c1ccc(Cl)cc1 is 91.8

These data points were gathered from PubChem BioAssay AID2060360.
